System: pressor response to AII
Experiment: Assay C: In Vivo Intragastric Pressor Assay Response for AII Antagonists
Design: species or system rat
Conditions: Dose: 3 mg/kg (i.g.), Sprague-Dawley rats, AII challenges up to 180 minutes after gavage
reported.property: Assay C Duration

{"columns": ["smi", "Assay C Duration"],
 "data": [
  ["CCCCc1cn(CCc2cccs2)c(=O)n1Cc1ccc(-c2ccccc2-c2nnn[nH]2)nc1", ">180 min"],
  ["CCCCc1cn(CCC2=CCCC2)c(=O)n1Cc1ccc(-c2ccccc2-c2nnn[nH]2)nc1", "180 min"],
  ["CCCCc1cn(CCC2CC2)c(=O)n1Cc1ccc(-c2ccccc2-c2nnn[nH]2)nc1", ">180 min"],
  ["CCCCCc1cn(CCCC)c(=O)n1Cc1ccc(-c2ccccc2-c2nnn[nH]2)nc1", "180 min"]
]}

Input: Indicate the recorded Assay C Duration value for this compound: CCCCCn1cc(CCCC)n(Cc2ccc(-c3ccccc3-c3nnn[nH]3)nc2)c1=O
Output: >180 min

Input: Indicate the recorded Assay C Duration value for this compound: CCCCc1cn(-c2c(Cl)cccc2Cl)c(=O)n1Cc1ccc(-c2ccccc2-c2nnn[nH]2)nc1
Output: >180 min

Input: Indicate the recorded Assay C Duration value for this compound: CCCCc1cn(C(C)(C)C)c(=O)n1Cc1ccc(-c2ccccc2-c2nnn[nH]2)nc1
Output: 180 min

Input: Indicate the recorded Assay C Duration value for this compound: CCCCc1cn(CC(C)(C)C)c(=O)n1Cc1ccc(-c2ccccc2-c2nnn[nH]2)nc1
Output: >180 min

---

Each entry below carries its reported melting point.

Answered cases to consult:
{"columns": ["smi", "melting point"],
 "data": [
  ["CCCCc1cn(-c2c(F)cccc2F)c(=O)n1Cc1ccc(-c2ccccc2-c2nnn[nH]2)nc1", "164.5 to 165.5 °C (dec.)"],
  ["CCCCc1cn(CC(CC)CC)c(=O)n1Cc1ccc(-c2ccccc2-c2nnn[nH]2)nc1", "174 to 176 °C (dec.)"],
  ["CCCCc1cn(CC2CCCC2)c(=O)n1Cc1ccc(-c2ccccc2-c2nnn[nH]2)nc1", "204 °C (dec.)"]
]}

Input: Indicate the recorded melting point value for this compound: CCCCc1cn(C2CCCCC2)c(=O)n1Cc1ccc(-c2ccccc2-c2nnn[nH]2)nc1
Output: 202 to 203 °C (dec.)

Input: Indicate the recorded melting point value for this compound: CCCCc1cn(CCC(C)C)c(=O)n1Cc1ccc(-c2ccccc2-c2nnn[nH]2)nc1
Output: 168.5 to 170 °C

---

reported.property: melting point

Answered cases to consult:
{"columns": ["smi", "reported.measurement"],
 "data": [
  ["CCCCc1cn(CCCC)c(=O)n1Cc1ccc(-c2ncccc2-c2nnn[nH]2)cc1", "178 to 179.5 °C"],
  ["CCCCc1cn(CCCC)c(=O)n1Cc1ccc(-c2cccnc2-c2nnn[nH]2)cc1", "178 to 179.5 °C"],
  ["CCCCc1cn(-c2ccccc2Cl)c(=O)n1Cc1ccc(-c2ccccc2-c2nnn[nH]2)nc1", "81 to 83 °C"]
]}

Next compound, please.
Input: Indicate the recorded melting point value for this compound: CCCCc1cn(CCc2cccs2)c(=O)n1Cc1ccc(-c2ccccc2-c2nnn[nH]2)nc1
Output: 137 to 138 °C

---

Each entry below carries its reported Assay C Duration.
Test system: pressor response to AII
Experiment: Assay C: In Vivo Intragastric Pressor Assay Response for AII Antagonists
Parameters: species or system rat
Details: Dose: 3 mg/kg (i.g.), Sprague-Dawley rats, AII challenges up to 180 minutes after gavage
Protocol: Assay C: In Vivo Intragastric Pressor Assay Response for AII Antagonists Male Sprague-Dawley rats weighing 225-300 grams were anesthetized with methohexital (30 mg/kg, i.p.) and catheters were implanted into the femoral artery and vein. […] Arterial pressure was recorded on a Gould polygraph (mmHg). […] The pressor response in mm Hg was measured by the difference from pre-injection arterial pressure to the maximum pressure achieved. […] The pressor response to AII was measured at each time point. […]
Report the value in min with no unit label.

{"columns": ["smi", "unit.of.measurement", "Assay C Duration"],
 "data": [
  ["CCCCn1cc(C2CCCCC2)n(Cc2ccc(-c3ccccc3-c3nnn[nH]3)nc2)c1=O", "min", 180]
]}

Input: Indicate the recorded Assay C Duration value for this compound: CCCCc1cn(CCc2ccccc2)c(=O)n1Cc1ccc(-c2ccccc2-c2nnn[nH]2)nc1
Output: 180
